The entries below come with measured IC50 values attached.
molecular target: ALDH3A1 (Homo sapiens (Human), UniProt P30838); conditions: read-out: ALDH3A1 IC50 (micromolar); Table 4(B), hits from ChemBridge screen
Sequence (P30838 whole entry): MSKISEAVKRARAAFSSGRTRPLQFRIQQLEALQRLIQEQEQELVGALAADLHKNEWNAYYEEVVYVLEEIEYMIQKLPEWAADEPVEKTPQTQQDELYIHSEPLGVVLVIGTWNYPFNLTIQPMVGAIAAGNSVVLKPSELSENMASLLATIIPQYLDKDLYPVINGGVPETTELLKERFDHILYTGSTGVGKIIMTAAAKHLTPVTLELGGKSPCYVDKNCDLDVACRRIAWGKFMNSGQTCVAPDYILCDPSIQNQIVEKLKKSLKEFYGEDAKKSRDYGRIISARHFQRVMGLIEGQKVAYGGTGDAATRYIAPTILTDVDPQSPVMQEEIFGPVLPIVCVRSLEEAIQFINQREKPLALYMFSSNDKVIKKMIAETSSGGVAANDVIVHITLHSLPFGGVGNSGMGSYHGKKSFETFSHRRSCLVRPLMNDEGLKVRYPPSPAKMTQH
Report as a plain number; the unit µM is understood.

In [3]: df
Out[3]:
                chemical_structure  experimental_result
0    CCN(CC)CCC(=O)c1ccc2c(c1)OCO2                  3.2
1  O=C(CCN1CCOCC1)c1ccc2c(c1)OCCO2                 11.7

Recorded result, `O=[N+](O)c1ccccc1CNc1ccc(F)c(F)c1` , IC50: 5.2

Recorded result, `N#CSCCCCOc1ccc(Cl)cc1` , IC50: 3.7

----------
target: ALDH3A1 (Homo sapiens (Human)); experiment: biochemical; conditions: read-out: % activity left after treating with 10 micromolar inhibitor ALDH3A1
Threshold rule: inhibition at 10 µM greater than or equal to 50% is yes (1); below that, no (0).

These solved cases illustrate the format of a correct answer.
                                   compound  qualitative_label
0  Nc1ccc(-c2cc(C(=O)O)c3ccccc3n2)cc1 [CB5]             no (0)
1       CCOc1cc(/C=C/[N+](=O)O)ccc1O [CB26]             no (0)
2        Cc1ccc(/C=C/[N+](=O)O)cc1Br [CB37]             no (0)
3  Cc1cc(C2CNc3ccccc32)oc(=O)c1 (stereo not drawn) [CB4]            yes (1)
4  Cc1ccc(-c2ccc(/C=C/[N+](=O)O)o2)c(Br)c1 [CB39]             no (0)
5     c1ccc(CNc2nc(-c3ccccn3)cs2)cc1 [CB27]             no (0)
6  C#CCOc1c(Cl)cc(/C=C/[N+](=O)O)cc1OC [CB42]             no (0)
7  N#CC(Cc1ccc(S(=O)(=O)c2ccc(Cl)cc2)cc1)c1nc2ccccc2[nH]1 (stereo not drawn) [CB10]            yes (1)
8      O=C(O)CCc1ccc(-c2ccc(F)cc2)o1 [CB32]             no (0)
9   O=[N+]([O-])c1ccc(N2CCCC2)c(F)c1 [CB14]             no (0)

Decide: is the reported value of inhibition at 10 µM for N#CSC1CN=C(NC2CCCCC2)S1 (stereo not drawn) [CB6] equal to or greater than 50%? no (0)

Decide: is the reported value of inhibition at 10 µM for OCCCn1c(-c2ccc(Cl)cc2)cn2c3ccccc3nc12 [CB11] equal to or greater than 50%? yes (1)

Decide: is the reported value of inhibition at 10 µM for CN(CC(=O)[O-])c1nc2ccc([N+](=O)O)cc2s1 [CB21] equal to or greater than 50%? yes (1)

Decide: is the reported value of inhibition at 10 µM for O=C(CSc1ccccc1)NCc1ccco1 [CB23] equal to or greater than 50%? yes (1)

Decide: is the reported value of inhibition at 10 µM for C=CCOc1ccc(/C=C/[N+](=O)O)cc1OC [CB35] equal to or greater than 50%? no (0)

Decide: is the reported value of inhibition at 10 µM for C#CCOc1ccc(/C=C/[N+](=O)O)cc1 [CB36] equal to or greater than 50%? no (0)

Decide: is the reported value of inhibition at 10 µM for Cc1cc(OCC(=O)O)c([N+](=O)O)cc1Cl [CB3] equal to or greater than 50%? yes (1)

Decide: is the reported value of inhibition at 10 µM for COc1ccc(/C=C/[N+](=O)O)cc1Br [CB38] equal to or greater than 50%? no (0)

Decide: is the reported value of inhibition at 10 µM for COc1ccc(/C=C/[N+](=O)O)cc1I [CB40] equal to or greater than 50%? no (0)

Decide: is the reported value of inhibition at 10 µM for CN(C)c1ccc(/C=C/[N+](=O)O)cc1Br [CB41] equal to or greater than 50%? no (0)

----------
target: ALDH3A1 (Homo sapiens (Human)); experiment: biochemical
VALUE_KIND: IC50 (µM)
Report as a plain number; the unit µM is understood.

Recorded result, Cc1ccc(Nc2ccc(S(C)(=O)=O)cc2[N+](=O)[O-])cc1F [Compound 8] , IC50: 10

----------
target: ALDH2 (Homo sapiens (Human))
Sequence (P05091 18-517): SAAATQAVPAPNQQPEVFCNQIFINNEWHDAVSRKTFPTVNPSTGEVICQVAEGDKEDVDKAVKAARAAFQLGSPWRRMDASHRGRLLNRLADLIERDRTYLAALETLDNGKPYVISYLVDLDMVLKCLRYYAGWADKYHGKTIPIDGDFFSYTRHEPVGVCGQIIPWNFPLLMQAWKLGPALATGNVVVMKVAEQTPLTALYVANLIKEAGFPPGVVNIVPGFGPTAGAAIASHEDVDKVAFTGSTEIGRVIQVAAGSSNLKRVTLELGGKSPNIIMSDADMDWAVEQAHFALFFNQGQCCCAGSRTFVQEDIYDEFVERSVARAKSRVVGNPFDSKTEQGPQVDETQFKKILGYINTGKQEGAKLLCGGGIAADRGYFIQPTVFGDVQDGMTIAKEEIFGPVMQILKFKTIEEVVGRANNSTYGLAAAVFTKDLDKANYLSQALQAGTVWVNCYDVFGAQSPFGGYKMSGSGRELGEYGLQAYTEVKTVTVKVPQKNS
Could you please classify the records by IC50 using these ranges: bottom bin (below 2 µM), middle bin (2 µM to below 10 µM), top bin (10 µM or more)

These solved cases illustrate the format of a correct answer.
In [3]: df
Out[3]:
                                   compound  qualitative_label
0  Cc1ccc(S(=O)(=O)NC(O)C(=O)c2cccs2)cc1 (stereo not drawn)         middle bin
1  CCCSc1nnc2c(n1)OC(C(=O)c1ccc(OC)cc1)Nc1ccccc1-2 (stereo not drawn)         bottom bin
2  CCSc1nnc2c(n1)OC(C(=O)c1ccc(OC)cc1)Nc1ccccc1-2 (stereo not drawn)         bottom bin
3  CCCC1C(C#N)=C(SCC(=O)c2ccc(Br)cc2)NC(C)=C1C(C)=O (stereo not drawn)            top bin
4   CCn1c(-c2ccc(OC)c(F)c2)cs/c1=N/c1ccccc1         middle bin

Form field 'band' for O=C(NC(O)C(=O)c1cccs1)c1ccncc1 (stereo not drawn) middle bin

Form field 'band' for O=C1Nc2ccccc2C12Oc1ccccc1C1CC(c3ccccc3)=NN12 (stereo not drawn) top bin

Form field 'band' for CCOC(=O)CN1C(=O)C(O)(CC(=O)c2ccncc2)c2ccccc21 (stereo not drawn) top bin

Form field 'band' for O=C(NC(O)C(=O)c1cccs1)c1cccnc1 (stereo not drawn) middle bin
